# STUDY_SYSTEM: methionyl-tRNA synthetase (Trypanosoma brucei)
# ASSAY_TEXT: inhibition of trypanosomal methionyl-tRNA synthetase – biochemical, fluorescence polarization, dose response, orthogonal assay for T. brucei MetRS inhibitor project, late-stage follow-up (AID 686969)
Active and inactive are the calls of the source. The rule behind the calls is not given here.
Parameter call: string, one of active, inactive

Illustrative cases are given below, each with its answer.
# COMPOUND, QUALITATIVE_LABEL
records = [
    ("CN(CC(=O)Nc1ccc(Cl)cc1)C(=O)c1ccc(-n2cncn2)c([N+](=O)[O-])c1", "active"),
    ("Cc1[nH]c2ccc(Br)cc2c(=O)c1CN1CCCCCC1", "inactive"),
    ("O=C(CN1CCSC1=NCc1ccccc1)c1ccc(Cl)c(Cl)c1", "active"),
    ("CC(CC(=O)Nc1cccc(Br)c1)=NNC(=O)c1ccc(O)cc1O", "active"),
    ("COc1cccc(NC(=O)CSc2nnc3c(n2)[nH]c2ccc(C)cc23)c1", "active"),
]

Query: Assay result, entry O=C(NCc1nc2ccccc2[nH]1)C1=C[C@@H](C2CC2)C[C@@H](OCc2ccc(CO)cc2)O1 — outcome?
Response: active

Query: What call does the record list for CC(C)OCCCN1CC(=O)N2C(c3cccc([N+](=O)[O-])c3)c3[nH]c4ccccc4c3C[C@H]2C1=O (some centres undefined) ?
Response: active
